Numbers sourced from the Deep4Chem optical property database.

Experiment: solvent given as SMILES
Conditions: in ClCCl
readout: emission maximum (nm)

* C(=C\c1c2ccccc2cc2ccccc12)/c1ccc(Oc2ccc3ccccc3c2-c2c(Oc3ccc(/C=C/c4c5ccccc5cc5ccccc45)cc3)ccc3ccccc23)cc1 | 486
* O=P1(c2ccccc2)C(c2ccc(N(c3ccccc3)c3ccccc3)cc2)=Cc2ccccc21 (centres undefined) | 544
* COc1ccc(-c2cn3ccc[n+]3[n-]2)cc1 | 413
* Oc1ccc(-c2ccco2)cc1-c1nc2ccccc2s1 | 406
* C1=CC2=CC=CC3C=c4c(cc5cccc6cccc4c65)C(=C1)C23 (centres undefined) | 574
* CCCC1=C(CCC)c2cccc3c2c(cc2nc4ccccc4nc23)O1 | 563
* CCCCCCCCOc1cc(/C=C/c2cc(OCCCCCCCC)c(/C=C/c3cc(OCCCCCCCC)c(/C=C/c4ccncc4)cc3OCCCCCCCC)cc2OCCCCCCCC)c(OCCCCCCCC)cc1/C=C/c1ccncc1 | 570
* CC(=O)Nc1cccc2c1C#Cc1c(cccc1C(=O)N(C)C)OCCCO2 | 390
* CN1C(=O)c2cccc3c(-n4c5ccccc5c5ccccc54)ccc(c23)C1=O | 556
* Cc1c(C(=O)c2ccccc2Cl)c2ccc3cccc4c5cccc6ccc1c(c65)c2c34 | 482
* Cc1cc(-c2cccc3ccccc23)cc(C)[o+]1 | 554
* N#Cc1ccc(C#Cc2ncc(-c3ccccc3)o2)cc1 | 410
* CCCCCCCCCCCCN1C(=O)c2c(c3ccc4cc(-c5ccc(N(C)C)cc5)c(OC)cc4c3c3c2ccc2cc(-c4ccc(N(C)C)cc4)c(OC)cc23)C1=O | 620
* Cc1cccc2[n+]1[B-](c1ccccc1)(c1ccccc1)c1cccc3c4c5c(cccc5c-2c13)[B-](c1ccccc1)(c1ccccc1)[n+]1c(C)cccc1-4 | 611
* CCN(CC)c1ccc2c(C#N)c(/C=C(\C#N)c3nc4ccccc4s3)c(=O)oc2c1 | 666
* COC(=O)C1=C(C(=O)OC)C2(c3ccccc3-c3c(C(=O)OC)cccc32)[C@@H](c2ccc(Cl)cc2)C=C2c3cc(OC)c(OC)cc3CCN21 (some centres undefined) | 439
* CC(C)(C)c1ccc(-c2c3c(c(-c4ccc(C(C)(C)C)cc4)c4cc5ccccc5cc24)Cc2c(c(-c4ccc(C(C)(C)C)cc4)c4cc5ccccc5cc4c2-c2ccc(C(C)(C)C)cc2)C3)cc1 | 409
* O=C1c2cc(-n3c4ccccc4c4ccccc43)ccc2S(=O)(=O)c2ccc(-n3c4ccccc4c4ccccc43)cc21 | 614
* CCOC(=O)c1ccc(C2CC(c3cccc4ccccc34)=NN2c2ccc(C)cc2)cc1 (centres undefined) | 493
* CC(C)(C)c1ccc2c(c1)c1cc(C(C)(C)C)ccc1n2-c1ccccc1-c1nc(-c2ccccc2P(=O)(c2ccccc2)c2ccccc2)nc(-c2ccccc2P(=O)(c2ccccc2)c2ccccc2)n1 | 526.23
* CN(C)c1ccc(-c2cccc3nsnc23)cc1 | 635
* COc1ccc(-c2cc3ccc4cc(-c5ccc(OC)cc5)cc5ccc(c2)c3c45)cc1 | 417.26
* CCOC(=O)c1c(-c2c(Cl)c3ccccc3oc2=O)nn(-c2cccc(Cl)c2)c1C(=O)OCC | 409
* O=[N+]([O-])c1ccc([N+]2=CC3=C(O[B-]2(F)F)c2ccccc2SC3)cc1 | 575
* COc1cc(/C=C/c2ccccn2)c(OC)cc1C=O | 455
* [C-]#[N+]c1ccc(-c2ccc(NC)cc2)cc1 | 405
* CN(C)c1ccc(/C=C/c2cnc(C#Cc3ccc(C#N)cc3)o2)cc1 | 515
* CC(C)(C)c1ccc(-c2cc(-c3ccc(-c4cc(-c5ccc(C(C)(C)C)cc5)c(C(=O)NCc5ccccc5)s4)s3)sc2C(=O)NCc2ccccc2)cc1 | 449
* N#Cc1ccc(C#Cc2ccc3ccc4ccc(C#Cc5ccc(C#N)cc5)c5ccc2c3c45)cc1 | 448.8
* CC(C)[Si](C#Cc1c2nsnc2c(C#C[Si](C(C)C)(C(C)C)C(C)C)c2nc3c4ccccc4c(=O)c4ccccc4c3nc12)(C(C)C)C(C)C | 594
* COc1ccc2cc(C#CC3=C4CCc5ccccc5C4=[O+][B-](F)(F)O3)ccc2c1 | 566
* COc1cc(-c2cnc(-c3cnc4ccccc4c3)o2)cc(OC)c1OC | 458
* CC1=CC(C)=[N+]2C1=C(c1ccccc1)c1c(C)c(-c3cccs3)c(C)n1[B-]2(F)F | 594
* CCn1c2ccccc2c2cc(-c3cc(-c4ccc5c(c4)c4ccccc4n5CC)nc(-c4ccc(OC)cc4)n3)ccc21 | 404
